System: bovine cardiac myofibrils
Test: Myofibril assay: PK/LDH-coupled steady-state ATPase activity of skinned bovine cardiac myofibrils
Assay type: biochemical
Conditions: Ca2+ activating to 75% of maximal rate
Please mark rule met if the recorded CDMF75 IC15 is equal to or greater than 7 µM, and rule not met if it falls below.

Example cases with answers are listed next.
CC(=O)N1CC2(C1)C(=O)N(c1ccc(-c3noc(C)n3)cc1F)CC(=O)N2Cc1ccc(C(F)(F)F)cc1    rule met
CC(C)N1CC(=O)N(Cc2ccc(Cl)cn2)C(c2ccc(Cl)cc2)C1=O (centres unmarked)    rule met
C=C(C)c1ccc(N2CC(=O)N(Cc3ccc(C(F)(F)F)cc3)C3(CN(C(=O)NC)C3)C2=O)cc1    rule not met
Cc1cc(Cl)cnc1N1CC(=O)N(Cc2ccc(Cl)cc2)C(C2(C)COC2)C1=O (centres unmarked)    rule met
Cc1cc(Cl)cnc1N1CC(=O)N(Cc2ccc(Cl)cc2)C(C2COC2)C1=O (centres unmarked)    rule not met

Prompt line: Does CDMF75 IC15 meet or surpass 7 µM for O=C1C(C23CC(O)(C2)C3)N(Cc2ccc(C(F)F)cc2)C(=O)CN1c1ncc(Cl)cc1F (centres unmarked) ?
Response line: rule not met

Prompt line: Another compound: O=C1C(C23CC(O)(C2)C3)N(Cc2ccc(Cl)cc2)C(=O)CN1c1ncc(Cl)cc1F (centres unmarked)
Response line: rule not met

Prompt line: Another compound: CC(C)N1CC(=O)N(Cc2ccc(Cl)cc2)C(C)(c2ccc(Cl)cc2)C1=O (centres unmarked)
Response line: rule met
